These data points were gathered from patent US20120225896A1.

Molecular target: human PPARγ2 (Homo sapiens)
Construct: the amino acids 182 to 505 of human PPARγ2; expressed in transfected cells; African green monkey kidney
Assay: PPARγ activation activity, Gal4-PPARγ2 LBD chimera luciferase transfection assay in COST cells
Assay type: cell-based
pEC50: −log10 of the molar value.
Measure: pEC50

Specify reported pEC50 for the molecule shown: CCCc1nc2c(C)cc(-c3nc4ccccc4n3C)cc2n1Cc1ccc(-c2ccccc2C(=O)O)cc1 [telmisartan, reference compound]
5.30 to 6.00

----------
Target: angiotensin II type 1 receptor (Oryctolagus cuniculus, UniProt P34976)
Construct: By using a specimen of isolated rabbit blood vessels
Sequence (P34976 whole entry): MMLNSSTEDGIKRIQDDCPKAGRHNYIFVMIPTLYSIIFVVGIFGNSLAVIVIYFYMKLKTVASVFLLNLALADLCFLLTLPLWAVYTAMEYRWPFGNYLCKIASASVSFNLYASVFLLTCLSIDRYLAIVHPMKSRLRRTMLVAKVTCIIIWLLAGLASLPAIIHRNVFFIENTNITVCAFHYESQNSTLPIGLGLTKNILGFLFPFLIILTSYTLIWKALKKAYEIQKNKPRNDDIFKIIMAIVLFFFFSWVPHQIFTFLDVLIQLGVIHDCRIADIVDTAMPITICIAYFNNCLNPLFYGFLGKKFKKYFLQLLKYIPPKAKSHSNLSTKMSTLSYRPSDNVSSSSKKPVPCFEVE
Assay: Angiotensin II antagonistic activity in isolated rabbit blood vessels (angiotensin II-induced contraction of thoracic aorta ring)
Details: angiotensin II (10 nM)-induced contraction, 37° C.
Measure: IC50

Specify reported IC50 for the molecule shown: `CCCCc1cc(C)n(CCOC)c(=O)c1Cc1ccc(-c2ccccc2-c2nnn[nH]2)cc1`
160 nM

Specify reported IC50 for the molecule shown: `CCCCc1cc(C)n(CCc2ccccc2)c(=O)c1Cc1ccc(-c2ccccc2-c2nnn[nH]2)cc1`
580 nM

Specify reported IC50 for the molecule shown: `CCCCc1cc(C)n(CCOC)c(=O)c1Cc1ccc(-c2ccccc2-c2noc(=O)[nH]2)cc1`
190 nM

Specify reported IC50 for the molecule shown: `CCCCc1cc(C)n(CCc2ccccc2)c(=O)c1Cc1ccc(-c2ccccc2-c2noc(=O)[nH]2)cc1`
390 nM

Specify reported IC50 for the molecule shown: `CCCCc1cc(C)n(-c2ncc(OCC)cn2)c(=O)c1Cc1ccc(-c2ccccc2-c2noc(=O)[nH]2)cc1`
460 nM

Specify reported IC50 for the molecule shown: `CCCCc1cc(C)n(-c2ncc(OC)cn2)c(=O)c1Cc1ccc(-c2ccccc2-c2noc(=O)[nH]2)cc1`
540 nM

Specify reported IC50 for the molecule shown: `CCCCc1cc(C)n(-c2ccccn2)c(=O)c1Cc1ccc(-c2ccccc2-c2nnn[nH]2)cc1`
460 nM

Specify reported IC50 for the molecule shown: `CCCCc1cc(C)n(-c2ncc(OCC)cn2)c(=O)c1Cc1ccc(-c2ccccc2-c2nnn[nH]2)cc1`
330 nM

----------
What pEC50 was measured for each of the following?
Biological target: human PPARγ2 (Homo sapiens, UniProt P37231)
Construct: the amino acids 182 to 505 of human PPARγ2; expressed in transfected cells; African green monkey kidney
Sequence (P37231 182-505): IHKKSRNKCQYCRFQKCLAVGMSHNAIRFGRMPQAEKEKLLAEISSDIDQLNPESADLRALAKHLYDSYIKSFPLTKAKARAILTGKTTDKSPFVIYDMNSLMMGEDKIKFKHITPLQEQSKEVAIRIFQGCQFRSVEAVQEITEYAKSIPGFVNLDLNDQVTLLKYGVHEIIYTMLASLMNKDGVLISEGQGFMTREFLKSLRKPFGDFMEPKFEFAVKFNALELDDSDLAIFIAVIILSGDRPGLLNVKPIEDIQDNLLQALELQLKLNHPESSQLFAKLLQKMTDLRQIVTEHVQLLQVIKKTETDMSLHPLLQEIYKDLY
Sequence (P04386 1-147 partner limits assumed): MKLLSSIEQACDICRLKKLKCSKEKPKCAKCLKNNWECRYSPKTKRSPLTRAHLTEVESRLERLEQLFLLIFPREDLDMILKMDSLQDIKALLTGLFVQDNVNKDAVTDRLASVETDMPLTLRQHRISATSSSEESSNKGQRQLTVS
Assay: PPARγ activation activity, Gal4-PPARγ2 LBD chimera luciferase transfection assay in COST cells
Assay type: cell-based
Settings: COST cells transfected with Gal4 (aa 1-147)/human PPARγ2 (aa 182-505) chimera, luciferase reporter, 16 hours; read-out: EC50
// pEC50 is dimensionless: -log10 of concentration (M)

Specify reported pEC50 for the compound shown: CCCc1cc(C)n(Cc2ccccc2)c(=O)c1Cc1ccc(-c2ccccc2-c2nnn[nH]2)cc1 [Example 3]
6.49

Specify reported pEC50 for the compound shown: CCCCc1cc(C)n(CCOC)c(=O)c1Cc1ccc(-c2ccccc2-c2nnn[nH]2)cc1 [Example 9]
6.25

Specify reported pEC50 for the compound shown: CCCCc1cc(C)n(-c2ccccn2)c(=O)c1Cc1ccc(-c2ccccc2-c2nnn[nH]2)cc1 [Example 15]
5.78

Specify reported pEC50 for the compound shown: CCCCc1cc(C)n(CCOC)c(=O)c1Cc1ccc(-c2ccccc2-c2noc(=O)[nH]2)cc1 [Example 10]
6.35

Specify reported pEC50 for the compound shown: CCCCCc1cc(C)n(Cc2ccccc2)c(=O)c1Cc1ccc(-c2ccccc2-c2nnn[nH]2)cc1 [Example 5]
6.30

Specify reported pEC50 for the compound shown: CCCCc1cc(C)n(-c2ncc(OCC)cn2)c(=O)c1Cc1ccc(-c2ccccc2-c2nnn[nH]2)cc1 [Example 11]
5.65

Specify reported pEC50 for the compound shown: CCCCc1cc(C)n(-c2ccccn2)c(=O)c1Cc1ccc(-c2ccccc2-c2noc(=O)[nH]2)cc1 [Example 16]
5.85

Specify reported pEC50 for the compound shown: CCCCc1cc(C)n(CCc2ccccc2)c(=O)c1Cc1ccc(-c2ccccc2-c2nnn[nH]2)cc1 [Example 7]
6.57

Specify reported pEC50 for the compound shown: CCCc1cc(C)n(Cc2ccccc2)c(=O)c1Cc1ccc(-c2ccccc2-c2noc(=O)[nH]2)cc1 [Example 4]
6.70

Specify reported pEC50 for the compound shown: CCCCc1cc(C)n(-c2ncc(OC)cn2)c(=O)c1Cc1ccc(-c2ccccc2-c2noc(=O)[nH]2)cc1 [Example 14]
5.90

Specify reported pEC50 for the compound shown: CCCOc1cc(C)n(Cc2ccccc2)c(=O)c1Cc1ccc(-c2ccccc2-c2noc(=O)[nH]2)cc1 [Example 18]
6.85

Specify reported pEC50 for the compound shown: CCCCc1cc(C)n(-c2ncc(OCC)cn2)c(=O)c1Cc1ccc(-c2ccccc2-c2noc(=O)[nH]2)cc1 [Example 12]
6.23

Specify reported pEC50 for the compound shown: CCCCc1cc(C)n(Cc2ccccc2)c(=O)c1Cc1ccc(-c2ccccc2-c2noc(=O)[nH]2)cc1 [Example 2]
6.59

Specify reported pEC50 for the compound shown: CCCOc1cc(C)n(Cc2ccccc2)c(=O)c1Cc1ccc(-c2ccccc2-c2nnn[nH]2)cc1 [Example 17]
6.24

Specify reported pEC50 for the compound shown: CCCCc1cc(C)n(Cc2ccccc2)c(=O)c1Cc1ccc(-c2ccccc2-c2nnn[nH]2)cc1 [Example 1]
6.40

Specify reported pEC50 for the compound shown: CCCCCc1cc(C)n(Cc2ccccc2)c(=O)c1Cc1ccc(-c2ccccc2-c2noc(=O)[nH]2)cc1 [Example 6]
6.59

Specify reported pEC50 for the compound shown: CCCCc1cc(C)n(CCc2ccccc2)c(=O)c1Cc1ccc(-c2ccccc2-c2noc(=O)[nH]2)cc1 [Example 8]
6.70
